- Test system: stable HCV 2a JFH-1 Rluc replicon cells (L31 present in NS5A)
- methodNotes: Renilla luciferase HCV replicon reporter assay, genotype 2a JFH-1
- Format: cell-based
- settings: Hepatitis C virus, read-out: 2a JFH (nM), genotype 2a JFH-1 replicon (L31 in NS5A), stable cells
observedProperty: EC50 (nM)
Your answer is read as nM, so omit the unit and give the number.

Which measured EC50 value corresponds to COC(=O)N[C@H](C(=O)N1[C@@H](C)CC[C@H]1c1ncc(-c2ccc3c(c2)COc2cc4c(ccc5nc([C@@H]6CC[C@H](C)N6C(=O)[C@@H](NC(=O)OC)[C@@H](C)OC(F)F)[nH]c54)cc2-3)[nH]1)C(C)C [FM] ?
0.019

What do we get for CC[C@H]1CC[C@@H](c2ncc(-c3ccc4c(c3)COc3cc5c(ccc6nc([C@@H]7C[C@H](C)CN7C(=O)[C@@H](NC(=O)OC)C7CCOCC7)[nH]c65)cc3-4)[nH]2)N1C(=O)[C@@H](NC(=O)OC)C(C)C [HZ] ?
0.014

What do we get for COC(=O)N[C@H](C(=O)N1[C@@H](C)CC[C@H]1c1nc2ccc3cc4c(cc3c2[nH]1)OCc1cc(-c2cnc([C@@H]3C[C@H](C)CN3C(=O)[C@@H](NC(=O)OC)C3CCOCC3)[nH]2)ccc1-4)C(C)C [EJ] ?
0.028

What do we get for COC[C@H]1C[C@@H](c2ncc(-c3ccc4c(c3)COc3cc5c(ccc6nc([C@@H]7C[C@H](C)CN7C(=O)[C@@H](NC(=O)OC)[C@@H](C)OC)[nH]c65)cc3-4)[nH]2)N(C(=O)[C@@H](NC(=O)OC)[C@@H](C)OC)C1 [FW] ?
0.054
